B1: SNAP91 (parent)
chain: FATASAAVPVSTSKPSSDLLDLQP

Variants of: B1
Assay: protein stability index of a GFP-peptide fusion (GPS, HEK-293T) (PSI 1-6); higher = more stable;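 note: lentivirally expressed fusions sorted by FACS into six bins by GFP to DsRed ratio, PSI derived from sequencing read proportions per bin multiplied by bin number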
Conditions: c terminus: a fixed tail appended
ENDPOINT: protein stability index
Format: numeric value only, no unit, no commentary.

Consider the reported protein stability index for these variants:
INSERT INTO measurements (mutation_name, measured_result) VALUES
  ('A6C', 2.46),
  ('A7H', 3.24),
  ('L20K', 4.33),
  ('S17V', 3.47),
  ('F1G', 4.89),
  ('D18C', 3.42),
  ('P15L', 2.72),
  ('S13M', 3.67);

Exercise: Please look up its protein stability index: S11H
Key: 3.01

Exercise: Next variant: Q23G
Key: 3.79

Exercise: Next variant: S5R
Key: 3.45
